Molecular target: Rap guanine nucleotide exchange factor 3 (Homo sapiens)
Experiment: Confirmatory qHTS for antagonist of cAMP-regulated guanine nucleotide exchange factor 3 (EPAC1) (AID 1645880); further: nearly all actives have a fitted effect of over 55% in size
Settings: EPAC1 Rap1B-BODIPY-GDP exchange, fluorescence
Inconclusive results are not listed. Calls of active or inactive are those of the source. The call rests on the fitted dose curve; in most records, active means well fitted inhibition curve with a large enough effect; inconclusive means small, poorly fitted or top-dose-only effect; inactive means no such curve, though single readings can be large or run the other way.
The reply should be one of these categories: TRUE for active, FALSE for inactive

Sample answers from the record:
Qu. What is the recorded call for this compound in the test? N=C1/C(=C\c2coc3ccccc3c2=O)C(=O)N=C2SC=CN12
Ans. FALSE

Qu. What is the recorded call for this compound in the test? Cc1[nH]n(-c2ncc(-c3ccccc3)s2)c(=O)c1C(c1ccc(Cl)cc1)C(C#N)C#N (stereo not given)
Ans. TRUE

Qu. What is the recorded call for this compound in the test? Nc1ncnc2c1nc(Sc1ccc(Cl)cc1)n2[C@@H]1O[C@@H]2COP(=O)(O)O[C@H]2[C@H]1O
Ans. TRUE

Qu. What is the recorded call for this compound in the test? CCOC(=O)c1ccccc1NC(=O)COC(=O)C(Cc1c[nH]c2ccccc12)NC(C)=O (stereo not given)
Ans. FALSE

Qu. What is the recorded call for this compound in the test? CCOc1ccccc1NC(=O)c1ccccc1-c1ccccc1
Ans. FALSE

***
Qu. What is the recorded call for this compound in the test? O=C(Cn1ccc(=O)[nH]c1=O)c1ccc([N+](=O)[O-])o1
Ans. FALSE

Qu. What is the recorded call for this compound in the test? O=C1CSC(=Nc2ccccc2)N1Cc1ccccc1
Ans. FALSE

Qu. What is the recorded call for this compound in the test? COc1cc([N+](=O)[O-])ccc1-c1ccc(/C=C2\C(=O)ON=C2c2ccccc2)o1
Ans. TRUE

Qu. What is the recorded call for this compound in the test? COc1ccc(S(=O)(=O)N2CCCCC2)cc1C(C)C
Ans. FALSE

Qu. What is the recorded call for this compound in the test? COc1ccc2c(c1)CCC1(C)CC(=O)C(Br)=C21 (stereo not given)
Ans. FALSE

Qu. What is the recorded call for this compound in the test? CC[C@]12c3[nH]c4cc(-c5ccco5)ccc4c3CCN1C(=O)[C@@H](CC(=O)NCCCOC)C[C@@H]2C(=O)N1CCN(C(=O)C2CC2)CC1
Ans. FALSE

Qu. What is the recorded call for this compound in the test? COc1ccc(N=Cc2c(O)ccc3ccccc23)cc1
Ans. FALSE

Qu. What is the recorded call for this compound in the test? COc1ccc(-c2nc3ccccc3n2Cc2ccccc2)cc1
Ans. FALSE

Qu. What is the recorded call for this compound in the test? [O-][n+]1c2ccccc2[n+]([O-])c2cc(O)ccc21
Ans. TRUE

====

Assay: Validation screen for small molecules that induce DNA re-replication in SW480 colon adenocarcinoma cells (AID 504364)
Settings: DNA re-replication phenotype (high-content imaging); series mostly up to 46.1 µM
Records with an inconclusive call do not appear. Activity calls are given as the source filed them. Calls come from the whole dose curve; as a rule, active = well fitted activation curve with a large enough effect; inconclusive = small, poorly fitted or top-dose-only effect; inactive = flat fitted curve, though single readings scatter.
The reply should be one of these categories: true (active), false (inactive)

Qu. What is the recorded call for this compound in the test? CC[C@H](C)C(=O)O[C@H]1CCC=C2C=C[C@H](C)[C@H](CC[C@@H]3C[C@H](O)CC(=O)O3)C21 (stereo not given in full)
Ans. false

Qu. What is the recorded call for this compound in the test? COc1cc2c(cc1O)CCC1C2CC[C@]2(C)[C@@H](O)CC[C@@H]12 (stereo not given in full)
Ans. true

Qu. What is the recorded call for this compound in the test? C[C@]12C[C@H](O)C3[C@@H](CCC4=CC(=O)CC[C@@]43C)[C@@H]1CC[C@@H]2C(=O)CO (stereo not given in full)
Ans. false

Qu. What is the recorded call for this compound in the test? C#C[C@]1(O)CC[C@H]2C3CCC4=Cc5oncc5CC4(C)C3CCC21C (stereo not given in full)
Ans. false

Qu. What is the recorded call for this compound in the test? Nc1nc(Cl)nc2c1ncn2[C@@H]1O[C@H](COP(=O)(O)OP(=O)(O)OP(=O)(O)O)[C@H](O)[C@H]1O
Ans. false
